Measured values drawn from the RNAGym collection of RNA variant scans (doi:10.1002/anie.201605470) for this set.

B1: Osa-1-4 twister ribozyme (parent)
chain: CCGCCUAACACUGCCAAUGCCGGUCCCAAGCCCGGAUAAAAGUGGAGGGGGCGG

variants of: B1; assay: self-cleavage, relative activity (ratio to wild type); higher = more cleavage; co-transcriptional
Parameter threshold = 0.06. Response is yes (1) when self-cleavage meets or exceeds it, else no (0).

A29C C25A | no (0)
G23U G54A | yes (1)
A41G A7G | yes (1)
A29U C11U | yes (1)

Shifting focus to the variant that follows.
input: Exam item: decide whether the reported self-cleavage for A10G G42C is at least 0.06.
output: yes (1)
